Entry source: the NIST ThermoML archive (doi:10.1021/acs.jced.7b00503)

Assay: wn = mass fraction of the nth substance listed
Conditions: 303.15 K, Pendant drop shape, w1 = 0.2
Kindly state surface tension liquid-gas for each of the entries shown.
Numbers only, in mN/m.

Previously resolved entries follow.
Compound: [Br-].[K+] [potassium bromide] + O
surface tension liquid-gas [mN/m]: 73.82

Compound: [I-].[Na+] [sodium iodide] + O
surface tension liquid-gas [mN/m]: 73.34

Compound: [Br-].[Na+] [sodium bromide] + O
surface tension liquid-gas [mN/m]: 75.4

Report surface tension liquid-gas for every entry below.
1. [Cl-].[Na+] [sodium chloride] + O
2. [Cl-].[K+] [potassium chloride] + O

*A*
[78.26, 76.32]
